As shown below, each of these molecules has a reported combination Emax value.
# Tested on: T98G (Glioblastoma)
# METHOD SUMMARY: combination Emax (second highest fraction inhibited in the dose matrix, 72 h); higher = more inhibition; extreme values may be limits of the assay
MEASURE NAME: combination Emax

| MOLECULE | MEASURE NAME | VALUE OBSERVED |
| --- | --- | --- |
| CS(=O)(=O)CCNCc1ccc(-c2ccc3ncnc(Nc4ccc(OCc5cccc(F)c5)c(Cl)c4)c3c2)o1 [Lapatinib] + Cn1cnc2c(F)c(Nc3ccc(Br)cc3Cl)c(C(=O)NOCCO)cc21 [Selumetinib] (first compound max 10 µM, 7x7, partner max 10 µM) | combination Emax | 0.25 |
| CN(CCO)CC[C@H](CSc1ccccc1)Nc1ccc(S(=O)(=O)NC(=O)c2ccc(N3CCC([C@@H](O)c4ccccc4-c4ccc(Cl)cc4)CC3)cc2)cc1S(=O)(=O)C(F)(F)F [AZD4320] + CCN(CCO)CCCOc1ccc2c(Nc3cc(CC(=O)Nc4cccc(F)c4)[nH]n3)ncnc2c1 [AZD2811] (first compound max 1 µM, 7x7, partner max 1 µM) | combination Emax | 0.554 |
| CC1(C)CCC(CN2CCN(c3ccc(C(=O)NS(=O)(=O)c4ccc(NCC5CCOCC5)c([N+](=O)[O-])c4)c(Oc4cnc5[nH]ccc5c4)c3)CC2)=C(c2ccc(Cl)cc2)C1 [Venetoclax] + CS(=O)(=O)CCNCc1ccc(-c2ccc3ncnc(Nc4ccc(OCc5cccc(F)c5)c(Cl)c4)c3c2)o1 [Lapatinib] (first compound max 1 µM, 7x7, partner max 10 µM) | combination Emax | 0.179 |

---

# Tested on: ES4 (Ewing's Sarcoma)
# METHOD SUMMARY: combination Emax (second highest fraction inhibited in the dose matrix, 72 h); higher = more inhibition; extreme values may be limits of the assay
MEASURE NAME: combination Emax

| COMPOUND | TARGET OF ASSAY | MEASURE NAME | VALUE OBSERVED |
| --- | --- | --- | --- |
| COc1cccc(OCCCN)c1-c1cc(Nc2cnc(C#N)cn2)n[nH]1 [Prexasertib] + C=CCn1c(=O)c2cnc(Nc3ccc(N4CCN(C)CC4)cc3)nc2n1-c1cccc(C(C)(C)O)n1 [AZD1775] (first compound max 1 µM, partner max 1 µM) | ES4 (Ewing's Sarcoma) | combination Emax | 0.893 |
| COc1nnc2ccc(N3CCC(c4ccc(OCCN5CCN(C)C(=O)[C@H]5C)cc4)CC3)nn12 [AZD5153] + CC1(C)CCC(CN2CCN(c3ccc(C(=O)NS(=O)(=O)c4ccc(NCC5CCOCC5)c([N+](=O)[O-])c4)c(Oc4cnc5[nH]ccc5c4)c3)CC2)=C(c2ccc(Cl)cc2)C1 [Venetoclax] (first compound max 1 µM, 7x7, partner max 1 µM) | ES4 (Ewing's Sarcoma) | combination Emax | 0.616 |
| Cc1cc2ncnn2cc1Nc1ncc2c(n1)n(C1CCOCC1)c(=O)n2C [AZD7648] + CCN(CCO)CCCOc1ccc2c(Nc3cc(CC(=O)Nc4cccc(F)c4)[nH]n3)ncnc2c1 [AZD2811] (first compound max 10 µM, 7x7, partner max 1 µM) | ES4 (Ewing's Sarcoma) | combination Emax | 0.279 |
| Cc1c2c(nn1C)CSCc1cc(n(C)n1)CSc1cc(c3ccccc3c1)OCCCc1c(C(=O)O)n(C)c3c-2c(Cl)ccc13 [AZD5991] + CN(C)CCCOc1ccc(-c2ccc3ncc4c(c3c2)n(C2CCOCC2)c(=O)n4C)cn1 [AZD0156] (first compound max 1 µM, 7x7, partner max 1 µM) | ES4 (Ewing's Sarcoma) | combination Emax | 0.238 |
| CN(C)CCCOc1ccc(-c2ccc3ncc4c(c3c2)n(C2CCOCC2)c(=O)n4C)cn1 [AZD0156] + O=C(c1cc(Cc2n[nH]c(=O)c3ccccc23)ccc1F)N1CCN(C(=O)C2CC2)CC1 [Olaparib] (first compound max 3 µM, partner max 3 µM) | ES4 (Ewing's Sarcoma) | combination Emax | 0.658 |
| Cc1c2c(nn1C)CSCc1cc(n(C)n1)CSc1cc(c3ccccc3c1)OCCCc1c(C(=O)O)n(C)c3c-2c(Cl)ccc13 [AZD5991] + C=CCn1c(=O)c2cnc(Nc3ccc(N4CCN(C)CC4)cc3)nc2n1-c1cccc(C(C)(C)O)n1 [AZD1775] (first compound max 1 µM, partner max 1 µM) | ES4 (Ewing's Sarcoma) | combination Emax | 0.502 |
| Cc1c2c(nn1C)CSCc1cc(n(C)n1)CSc1cc(c3ccccc3c1)OCCCc1c(C(=O)O)n(C)c3c-2c(Cl)ccc13 [AZD5991] + C[C@@H]1COCCN1C2=NC(=NC(=C2)C3(CC3)[S@](=N)(=O)C)C4=C5C=CNC5=NC=C4 [AZD6738] (first compound max 1 µM, 7x7, partner max 10 µM) | ES4 (Ewing's Sarcoma) | combination Emax | 0.885 |

---

# Tested on: NCI-H82 (Small Cell Lung Carcinoma)
# METHOD SUMMARY: combination Emax (second highest fraction inhibited in the dose matrix, 72 h); higher = more inhibition; extreme values may be limits of the assay
Each entry gets not met if its combination Emax stays under 0.8, and met if its combination Emax is 0.8 or above.

| COMPOUND | CLASS ASSIGNMENT |
| --- | --- |
| CC(=O)c1c(C)c2cnc(Nc3ccc(N4CCNCC4)cn3)nc2n(C2CCCC2)c1=O [Palbociclib] + Cc1c2c(nn1C)CSCc1cc(n(C)n1)CSc1cc(c3ccccc3c1)OCCCc1c(C(=O)O)n(C)c3c-2c(Cl)ccc13 [AZD5991] (first compound max 10 µM, 7x7, partner max 1 µM) | met |
| Cc1nc(Nc2ncc(C(=O)Nc3c(C)cccc3Cl)s2)cc(N2CCN(CCO)CC2)n1 [Dasatinib] + CC(=O)Nc1cccc(-n2c(=O)n(C3CC3)c(=O)c3c(Nc4ccc(I)cc4F)n(C)c(=O)c(C)c32)c1 [Trametinib] (first compound max 2 µM, 7x7, partner max 1 µM) | not met |
| CN(CCO)CC[C@H](CSc1ccccc1)Nc1ccc(S(=O)(=O)NC(=O)c2ccc(N3CCC([C@@H](O)c4ccccc4-c4ccc(Cl)cc4)CC3)cc2)cc1S(=O)(=O)C(F)(F)F [AZD4320] + Cc1cc2ncnn2cc1Nc1ncc2c(n1)n(C1CCOCC1)c(=O)n2C [AZD7648] (first compound max 1 µM, 7x7, partner max 10 µM) | not met |
| Cc1c2c(nn1C)CSCc1cc(n(C)n1)CSc1cc(c3ccccc3c1)OCCCc1c(C(=O)O)n(C)c3c-2c(Cl)ccc13 [AZD5991] + C1CN(CCC1(C(=O)N[C@@H](CCO)C2=CC=C(C=C2)Cl)N)C3=NC=NC4=C3C=CN4 [Capivasertib] (first compound max 1 µM, 7x7, partner max 3 µM) | met |
| COc1nnc2ccc(N3CCC(c4ccc(OCCN5CCN(C)C(=O)[C@H]5C)cc4)CC3)nn12 [AZD5153] + C[C@@H]1COCCN1C2=NC(=NC(=C2)C3(CC3)[S@](=N)(=O)C)C4=C5C=CNC5=NC=C4 [AZD6738] (first compound max 1 µM, 7x7, partner max 10 µM) | met |
| C=CCn1c(=O)c2cnc(Nc3ccc(N4CCN(C)CC4)cc3)nc2n1-c1cccc(C(C)(C)O)n1 [AZD1775] + C1CN(CCC1(C(=O)N[C@@H](CCO)C2=CC=C(C=C2)Cl)N)C3=NC=NC4=C3C=CN4 [Capivasertib] (first compound max 3 µM, partner max 3 µM) | met |

---

# Test system: HT-1376 (Bladder Carcinoma);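 further: after 72 h of two-drug dosing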
# METHOD SUMMARY: Bliss excess, mean over the matrix (fraction); higher = more synergy
Classification field: enter satisfied for Bliss excess values not below -0.005, not satisfied for values below it.

| COMPOUND | CLASS ASSIGNMENT |
| --- | --- |
| COc1cccc(OCCCN)c1-c1cc(Nc2cnc(C#N)cn2)n[nH]1 [Prexasertib] + C=CCn1c(=O)c2cnc(Nc3ccc(N4CCN(C)CC4)cc3)nc2n1-c1cccc(C(C)(C)O)n1 [AZD1775] (first compound max 1 µM, partner max 1 µM) | not satisfied |
| C[C@@H](c1ccc2nccn2c1)n1nnc2ncc(-c3cnn(C)c3)nc21 [Savolitinib] + Cc1c2c(nn1C)CSCc1cc(n(C)n1)CSc1cc(c3ccccc3c1)OCCCc1c(C(=O)O)n(C)c3c-2c(Cl)ccc13 [AZD5991] (first compound max 1 µM, 7x7, partner max 1 µM) | not satisfied |
| C=CCn1c(=O)c2cnc(Nc3ccc(N4CCN(C)CC4)cc3)nc2n1-c1cccc(C(C)(C)O)n1 [AZD1775] + O=C(c1cc(Cc2n[nH]c(=O)c3ccccc23)ccc1F)N1CCN(C(=O)C2CC2)CC1 [Olaparib] (first compound max 1 µM, partner max 10 µM) | not satisfied |
| C[C@@H](Nc1cc(F)cc(F)c1)c1cc(C(=O)N(C)C)cc2c(=O)cc(N3CCOCC3)oc12 [AZD8186] + C1CN(CCC1(C(=O)N[C@@H](CCO)C2=CC=C(C=C2)Cl)N)C3=NC=NC4=C3C=CN4 [AZD5363] (first compound max 10 µM, 7x7, partner max 10 µM) | not satisfied |
| CN(CCO)CC[C@H](CSc1ccccc1)Nc1ccc(S(=O)(=O)NC(=O)c2ccc(N3CCC([C@@H](O)c4ccccc4-c4ccc(Cl)cc4)CC3)cc2)cc1S(=O)(=O)C(F)(F)F [AZD4320] + CCN(CCO)CCCOc1ccc2c(Nc3cc(CC(=O)Nc4cccc(F)c4)[nH]n3)ncnc2c1 [AZD2811] (first compound max 1 µM, 7x7, partner max 1 µM) | satisfied |
| CN(CCO)CC[C@H](CSc1ccccc1)Nc1ccc(S(=O)(=O)NC(=O)c2ccc(N3CCC([C@@H](O)c4ccccc4-c4ccc(Cl)cc4)CC3)cc2)cc1S(=O)(=O)C(F)(F)F [AZD4320] + CC(=O)O[C@H]1C(=O)[C@@]2(C)[C@H]([C@H](OC(=O)c3ccccc3)[C@]3(O)C[C@H](OC(=O)[C@H](O)[C@@H](NC(=O)c4ccccc4)c4ccccc4)C(C)=C1C3(C)C)[C@]1(OC(C)=O)CO[C@@H]1C[C@@H]2O [Paclitaxel] (first compound max 1 µM, 7x7, partner max 3 µM) | satisfied |
| O=C(c1cc(Cc2n[nH]c(=O)c3ccccc23)ccc1F)N1CCN(C(=O)C2CC2)CC1 [Olaparib] + Cc1c2c(nn1C)CSCc1cc(n(C)n1)CSc1cc(c3ccccc3c1)OCCCc1c(C(=O)O)n(C)c3c-2c(Cl)ccc13 [AZD5991] (first compound max 10 µM, 7x7, partner max 1 µM) | not satisfied |
| CC1(C)CCC(CN2CCN(c3ccc(C(=O)NS(=O)(=O)c4ccc(NCC5CCOCC5)c([N+](=O)[O-])c4)c(Oc4cnc5[nH]ccc5c4)c3)CC2)=C(c2ccc(Cl)cc2)C1 [Venetoclax] + CCN(CCO)CCCOc1ccc2c(Nc3cc(CC(=O)Nc4cccc(F)c4)[nH]n3)ncnc2c1 [AZD2811] (first compound max 1 µM, 7x7, partner max 1 µM) | not satisfied |
| Cc1nc(-c2cn3c(n2)-c2ccc(-c4cnn(C(C)(C)C(N)=O)c4)cc2OCC3)n(C(C)C)n1 [Taselisib] + O=C(Nc1ccc2[nH]nc(-c3ccncc3)c2c1)[C@@H]1CCN(CC(=O)N2CCN(c3ccc(-c4ncccn4)cc3)CC2)C1 [SCH772984] (first compound max 10 µM, 7x7, partner max 5 µM) | satisfied |
| N#Cc1cnc(Nc2cc(NC[C@H]3CNCCO3)c(C(F)(F)F)cn2)cn1 [SRA737] + O=c1[nH]cc(F)c(=O)[nH]1 [5-Fluorouracil] (first compound max 10 µM, 7x7, partner max 20 µM) | not satisfied |
| Cc1nc(Nc2ncc(C(=O)Nc3c(C)cccc3Cl)s2)cc(N2CCN(CCO)CC2)n1 [Dasatinib] + CC(=O)Nc1cccc(-n2c(=O)n(C3CC3)c(=O)c3c(Nc4ccc(I)cc4F)n(C)c(=O)c(C)c32)c1 [Trametinib] (first compound max 2 µM, 7x7, partner max 1 µM) | satisfied |
| C=CCn1c(=O)c2cnc(Nc3ccc(N4CCN(C)CC4)cc3)nc2n1-c1cccc(C(C)(C)O)n1 [AZD1775] + C1CN(CCC1(C(=O)N[C@@H](CCO)C2=CC=C(C=C2)Cl)N)C3=NC=NC4=C3C=CN4 [Capivasertib] (first compound max 3 µM, partner max 3 µM) | satisfied |
| CC1(C)CCC(CN2CCN(c3ccc(C(=O)NS(=O)(=O)c4ccc(NCC5CCOCC5)c([N+](=O)[O-])c4)c(Oc4cnc5[nH]ccc5c4)c3)CC2)=C(c2ccc(Cl)cc2)C1 [Venetoclax] + C=CCn1c(=O)c2cnc(Nc3ccc(N4CCN(C)CC4)cc3)nc2n1-c1cccc(C(C)(C)O)n1 [AZD1775] (first compound max 1 µM, partner max 1 µM) | not satisfied |

Taken from the supplement of paper PMC11061612.
